src = patent US20170088600A1

As shown below, each of these binders has a reported pKd value.
study system: UL141
measurement notes: SPR
Remember the convention: pKd equals -log10 of concentration in molar.

Example cases with answers are listed next.
• TRAIL-R2-Fc L110A/L114A (Fc fusion) QQDLAPQQRAAPQQKRSSPSEGLCPPGHHISEDGRDCISCKYGQDYSTHWNDALFCARCTRCDSGEVELSPCTTTRNTVCQCEEGTFREEDSPEMCRKCRTGCPRGMVKVGDCTPWSDIECVHKESGLVPRGS = 7.37
• TRAIL-R2-Fc F112A (Fc fusion) QQDLAPQQRAAPQQKRSSPSEGLCPPGHHISEDGRDCISCKYGQDYSTHWNDLLACLRCTRCDSGEVELSPCTTTRNTVCQCEEGTFREEDSPEMCRKCRTGCPRGMVKVGDCTPWSDIECVHKESGLVPRGS = 6.20
• TRAIL-R2-Fc P150A (Fc fusion) QQDLAPQQRAAPQQKRSSPSEGLCPPGHHISEDGRDCISCKYGQDYSTHWNDLLFCLRCTRCDSGEVELSPCTTTRNTVCQCEEGTFREEDSAEMCRKCRTGCPRGMVKVGDCTPWSDIECVHKESGLVPRGS = 8.10

Ask | Can you share its pKd? I mean this binder: TRAIL-R2-Fc (human TRAIL-R2 aa 58-184, thrombin site, human IgG1 Fc), wild type (Fc fusion) QQDLAPQQRAAPQQKRSSPSEGLCPPGHHISEDGRDCISCKYGQDYSTHWNDLLFCLRCTRCDSGEVELSPCTTTRNTVCQCEEGTFREEDSPEMCRKCRTGCPRGMVKVGDCTPWSDIECVHKESGLVPRGS
Reply | 8.22
